Give GI50 for every item shown.
system: OVCAR-5; test: NCI tumour cell line growth inhibition, 48 h
Active and inactive are the calls of the source. Rule as the data show it: active = GI50 up to about 1.1 µM and inactive = higher.

Which GI50 is reported with OVCAR-5 for this entry: COc1ccc(CC2C(=O)NC(C)C(=O)N(C)C3C(=O)N(C)C(Cc4ccc(O)c(c4)Oc4ccc(cc4)C3O)C(=O)NC(C)C(=O)NC(C)C(=O)N2C)cc1 (stereo not drawn) ? 0.0303 µM (active)

Let us now turn to C1=CC=C2NCCSCC/N=C3/C=CC=CC=C3NCCSCC/N=C\2C=C1 > 100 µM (inactive)

How about this molecule: O=S1(=O)OCCOS(=O)(=O)C1(F)Br > 100 µM (inactive)

And for CC1OC(OC2C(CO)OC(O[C@H]3CC[C@@]4(C)C(=CC[C@H]5[C@@H]6C[C@@H]7O[C@]8(CC[C@@H](C)CN8)[C@@H](C)[C@@H]7[C@@]6(C)CC[C@@H]54)C3)C(O)C2O)C(O)C(O)C1O (stereo partly drawn) ? > 100 µM (inactive)

Moving on to COc1ccc(/C(=N/O)C(c2ccc(OC)cc2)C2C(=O)Oc3ccccc32)cc1 (stereo not drawn) 12.7 µM (inactive)

Next entry: [N-]=[N+]=Nc1c(N2CCOCC2)c(Cl)nc2ccccc12 > 100 µM (inactive)

Would you mind doing O=C(O)CN1CCNCCN(CC(=O)O)CC1 as well? > 22.1 µM (inactive)

Do the same for COc1cc2cccc(/N=C\c3cccc(OC)c3OC(C)C)c2cc1OC please > 100 µM (inactive)

Another: CN(C)CC1(C)CC/C(=C\c2ccc(Cl)cc2)C1=O (stereo not drawn) > 100 µM (inactive)

Repeat for the following molecule: CC1(C)OC(=O)C(c2ccsc2)C(=O)O1 > 100 µM (inactive)

Try the molecule N=C(N)NS(=O)(=O)c1ccc(NC(=O)c2cccc3cc4ccccc4nc23)cc1 > 100 µM (inactive)

Another molecule to look at: Clc1ccc(C2=Cc3nc2c(-c2ccccc2)c2ccc([nH]2)c(-c2ccccc2)c2nc(c(-c4ccccc4)c4ccc([nH]4)c3-c3ccccc3)C=C2)cc1 > 62.5 µM (inactive)

Note, next up: COc1ccc(/C=C/C(=O)N[C@@H]2C(=O)N3[C@@H]2SC(C)(C)[C@@H]3C(=O)O)cc1 > 100 µM (inactive)

Moving on to the next molecule: O=C(Cn1c(=O)oc2ccc(C(=O)c3ccccc3Cl)cc21)c1ccc([N+](=O)[O-])cc1 47.6 µM (inactive)

Field entry: O=C(CN1CCCCC1)Nc1ccc2sc3ccccc3c(=O)c2n1 18.2 µM (inactive)

Let us now turn to C=C1C(=O)O[C@H]2C1[C@H](OC(=O)/C(C)=C\COC(C)=O)C[C@]1(CO1)[C@@H]1[C@H](O)[C@H]3O[C@@]3(C)[C@@H]12 (stereo partly drawn) > 71.6 µM (inactive)

Cool, now NC(=O)c1c(-c2ccccc2)c(-c2ccccc2)cc2c(=O)c3ccccc3[nH]c12 65.8 µM (inactive)

How about this molecule: COc1c(Cl)nc2ccccc2c1N=[N+]=[N-] > 100 µM (inactive)

====

test system: DU-145; experiment: NCI tumour cell line growth inhibition, 48 h
Calls of active or inactive are those of the source. Rule as the data show it: active = GI50 up to about 1.1 µM and inactive = higher.
PROPERTY_MEASURED: GI50

Fill in the blank: the reported GI50 of O=C1CCCN1C(=O)CS(=O)(=O)c1ccccc1 is ____. > 100 µM (inactive)

Field entry: CC(=O)N(C(C)=O)c1cc2c3c(c1)CCCN3CCC2 > 10 µM (inactive)

Likewise for COc1cc2c[n+](C)c3c4cc(OC)c(OC)cc4c(OC)cc3c2cc1OC ? 8.45 µM (inactive)

Another: N=C(N)NS(=O)(=O)c1ccc(NC(=O)c2ccc3nc4ccccc4c(Nc4ccc(S(=O)(=O)N=C(N)N)cc4)c3c2)cc1 > 100 µM (inactive)

Same for O=C1c2ccccc2-c2ccc(O)cc21 20.1 µM (inactive)
